assay: gradient 5% acetonitrile 3 min, to 50% in 2 min, to 85% in 15 min, held 3 min, 100 µL/min; details: column: Zorbax Extend-C18 2.1 x 50 mm; eluents: water / acetonitrile, 0.1% formic acid
Quantity kind: RP-LC retention time (s)

# Molecule, Recorded number
rows = [
    ("Cc1cccc(N2CCN(C(=O)Cc3nnc(-c4sccc4C)o3)CC2)c1", 921),
    ("CN(C)C(=O)c1cc(N(C)C)nc2c(Cl)cccc12", 745),
    ("CCC1CN(C(=O)N2CCC(C(=O)NCCN3CCOCC3)CC2)c2cc(C)ccc2O1 (centres undefined)", 632),
    ("Cc1nc2cc(-c3noc(-c4ccccn4)n3)ccc2n(C2CCCC2)c1=O", 991),
    ("Cc1ccc(-c2nc(NC(=O)Cc3csc(C)n3)sc2C)cc1", 944),
    ("CC(C)Cn1c(=O)c(C(=O)NCc2ccc(C(F)(F)F)cc2)nc2cccnc21", 1050),
]

1: O=C(Cc1cccs1)N1CCN(c2cnn3cnnc3c2)CC1
2: Cc1ccc(CNC(=O)c2csc(-c3cn(C)c4ncccc34)n2)cc1C
**Query** Form field 'greater RP-LC retention time' accepts 1 or 2 ; which applies? Provide the label of your selected option as the answer.
**Result** 2

1: O=C(Nc1ccccc1Cl)N1CCN(CCn2c(-c3ccncc3)nc3cccnc32)CC1
2: Cc1ccc(CNC(=O)C2CCN(S(=O)(=O)c3ccc(-c4noc(C5CC5)n4)cc3)CC2)o1
**Query** I'm curious whether 1 or 2 has the smaller RP-LC retention time number. Which is it? Provide the label of your selected option as the answer.
**Result** 1
(1: 588 s, 2: 938 s)
